- EXPERIMENT NOTES: qHTS for induction of synthetic lethality in tumor cells producing 2HG: qHTS for the HT-1080-IDH1KD cell line
- CONDITION PARAMETERS: HT-1080 IDH1 knockdown viability, ATP luminescence, 48 h; series mostly up to 46.1 µM
About 7,500 (2.1%) of roughly 360,000 compounds were called active. Roughly 8% stayed inconclusive and do not appear here. Calls come from the whole dose curve; as a rule, active = well fitted cell-killing curve with a large enough effect; inconclusive = small, poorly fitted or top-dose-only effect, or effect the other way, or another doubt; inactive = no such curve, though single readings can be large or run the other way. Shown is part of a subset that was picked to be rich in actives.
The reply should be one of these categories: yes for active, no for inactive

- COMPOUND: "COc1cc(/C=C/C(=O)N2c3ccccc3Sc3ccc(C(F)(F)F)cc32)cc(OC)c1OC"
  LABEL: "no"
- COMPOUND: "COc1ccc(-c2nc(N)ncc2-c2ccc(Cl)cc2)c(O)c1"
  LABEL: "no"
- COMPOUND: "COc1cc(Br)cc(/C=N/c2ncn[nH]2)c1O"
  LABEL: "yes"
- COMPOUND: "CC1(c2cccc(N)c2)OCCO1"
  LABEL: "no"

Turning now to a further record.
Exam item: Lab log entry: O=C(NCc1ccc(F)cc1)c1cc(C2CCCCN2C(=O)c2cccs2)on1 (stereo not given) — outcome as called in the assay?
Marked response: no

* * *

- EXPERIMENT NOTES: qHTS for induction of synthetic lethality in tumor cells producing 2HG: qHTS for the HT-1080-IDH1KD cell line
- CONDITION PARAMETERS: HT-1080 IDH1 knockdown viability, ATP luminescence, 48 h; series mostly up to 46.1 µM
The whole screen tested about 360,000 compounds, of which about 7,500 (2.1%) were called active. About 8% were inconclusive and are not listed. Calls follow the shape of the dose curve; as a rule, active = well fitted cell-killing curve with a large enough effect; inconclusive = small, poorly fitted or top-dose-only effect, or effect the other way, or another doubt; inactive = no such curve, though single readings can be large or run the other way. The sample as a whole holds a higher share of actives than the screen did.
Please answer using one outcome listed in active, inactive

Known results for compounds:
- COMPOUND: "O=S(=O)([N-]c1nc2ccccc2nc1-[n+]1ccc(Cc2ccccc2)cc1)c1ccc(Br)s1"
  LABEL: "active"
- COMPOUND: "C/C(=N\\Nc1ccc(Cl)nn1)c1ccccc1O"
  LABEL: "active"
- COMPOUND: "O=C(O)CC1=C(Nc2ccccc2)C(=O)N(c2ccccc2)C1c1ccc(Cl)cc1 (centres undefined)"
  LABEL: "inactive"

Exam item: Query: recorded result category for COc1ccccc1NC(=O)C1CCCN1S(=O)(=O)c1ccc(Cl)cc1 (centres undefined) in this test
Marked response: inactive

* * *

- EXPERIMENT NOTES: qHTS for induction of synthetic lethality in tumor cells producing 2HG: qHTS for the HT-1080-IDH1KD cell line
- CONDITION PARAMETERS: HT-1080 IDH1 knockdown viability, ATP luminescence, 48 h; series mostly up to 46.1 µM
The whole screen tested about 360,000 compounds, of which about 7,500 (2.1%) were called active. Inconclusive results (about 8%) are left out. Calls come from the whole dose curve; as a rule, active = well fitted cell-killing curve with a large enough effect; inconclusive = small, poorly fitted or top-dose-only effect, or effect the other way, or another doubt; inactive = no such curve, though single readings can be large or run the other way. What follows is part of a selection rich in actives, with near analogues and random picks from the rest.
Allowed answers: active, inactive

Below are worked cases with known answers.
- COMPOUND: "O=C(Nc1cccc2ccccc12)NC1CC1"
  LABEL: "inactive"
- COMPOUND: "CCOc1ccc(Cl)cc1-c1cc(C(=O)NCc2cccs2)[nH]n1"
  LABEL: "inactive"
- COMPOUND: "C=CCOc1cccc(C2C(C(=O)c3ccc(C)o3)=C(O)C(=O)N2CCN2CCOCC2)c1 (stereo not drawn)"
  LABEL: "inactive"
- COMPOUND: "Brc1ccc2ncnc(NCc3cccnc3)c2c1"
  LABEL: "inactive"
- COMPOUND: "CC(C)c1ccc2c(c1)c(SC(C)(C)C)c(CC(C)(C)C(=O)O)n2Cc1ccc(Cl)cc1"
  LABEL: "active"

Exam item: # lookup: test call for "N#CCCN(C(=O)Nc1ccc(Cl)c(Cl)c1)C1CCCCC1"
Marked response: inactive

Exam item: Fill in: this test's call for Clc1cccc(-c2nc(NCC3CCCO3)c3ccccc3n2)c1 (stereo not drawn) is ___
Marked response: inactive

Exam item: Answer briefly: the call reported for CC(OC(=O)c1ccc2ccccc2n1)C(=O)c1ccccc1 (stereo not drawn) in this assay.
Marked response: inactive

Exam item: // outcome(item) with item = "CCOC(=O)c1cnn2c(SC)ncnc12"
Marked response: inactive

Exam item: Look up the recorded call for "CC(C)Nc1ncnc2c1ncn2[C@H]1CN(Cc2ccncc2)C[C@@H](CO)O1" in this test.
Marked response: inactive

Exam item: Each compound tested received a call. Report the one for "CC(C)(O)C1=C[N+](=O)CC=C1" .
Marked response: inactive

Exam item: # outcome recorded in this test, key = CC(=O)NC(c1cccc(F)c1)c1nc(-c2cccc(F)c2)cs1 (stereo not drawn)
Marked response: inactive

* * *

- EXPERIMENT NOTES: qHTS for induction of synthetic lethality in tumor cells producing 2HG: qHTS for the HT-1080-IDH1KD cell line
- CONDITION PARAMETERS: HT-1080 IDH1 knockdown viability, ATP luminescence, 48 h; series mostly up to 46.1 µM
The campaign covered roughly 360,000 compounds. About 7,500 (2.1%) were called active. About 8% were inconclusive and are not listed. Calls come from the whole dose curve; as a rule, active = well fitted cell-killing curve with a large enough effect; inconclusive = small, poorly fitted or top-dose-only effect, or effect the other way, or another doubt; inactive = no such curve, though single readings can be large or run the other way. The entries come from a sample that favours actives as a whole.
Form entry, call: pick from Y (active), N (inactive)

Worked set:
- COMPOUND: "Cc1cc(C)nc(Nc2n[nH]c(-c3ccccc3N)n2)n1"
  LABEL: "Y"
- COMPOUND: "O=NN(CCCl)C(=O)NCCc1cccc[n+]1[O-]"
  LABEL: "N"
- COMPOUND: "C/C(=N\\NC(=O)c1cc(-c2ccc(O)cc2)nc2ccccc12)c1cccnc1"
  LABEL: "N"
- COMPOUND: "CC(C)c1ccccc1OCC(O)CN(CC(O)COc1cccc2ccccc12)C(C)C (configuration not stated)"
  LABEL: "Y"
- COMPOUND: "CCn1c(/C=C/c2ccc([N+](=O)[O-])o2)nc2ccccc2c1=O"
  LABEL: "Y"

Exam item: Would you mind telling me which call this test gave CC1=C(C(=O)N2CCOCC2)CC(CC(=O)NCCN2CCOCC2)C(=O)N1CCC1=CCCCC1 (configuration not stated) ?
Marked response: N

Exam item: Status in this test for "Cc1nc(N2CCOCC2)c2c(C)c(C(=O)Nc3ccc(C(F)(F)F)cc3)sc2n1" ?
Marked response: Y

* * *

- EXPERIMENT NOTES: qHTS for induction of synthetic lethality in tumor cells producing 2HG: qHTS for the HT-1080-IDH1KD cell line
- CONDITION PARAMETERS: HT-1080 IDH1 knockdown viability, ATP luminescence, 48 h; series mostly up to 46.1 µM
- Source text: Unbiased genomic sequencing for 22 glioma genomes found recurrent mutation of IDH1 on chromosome 2q33, a gene encoding the cytosolic isoform of IIDH1 associated with the tri-carboxylic acid cycle (TCA) that catalyzes the oxidative decarboxylation of isocitrate, yielding alpha-ketoglutarate and CO2 via NADP+ to NADPH conversion. […] Concentration-response curves were fitted to the signals arising from the resulting luminescence. […]
About 7,500 (2.1%) of roughly 360,000 compounds were called active. Roughly 8% stayed inconclusive and do not appear here. The call rests on the fitted dose curve; in most records, active means well fitted cell-killing curve with a large enough effect; inconclusive means small, poorly fitted or top-dose-only effect, or effect the other way, or another doubt; inactive means no such curve, though single readings can be large or run the other way. Shown is part of a subset that was picked to be rich in actives.
Response enum: Yes for active, No for inactive

Answered cases to consult:
- MOLECULE: "COC(=O)[C@@]1(Cc2ccc(F)cc2)[C@H]2c3cc(C(=O)N(C)C)n(CCc4c[nH]c5ccc(OC)cc45)c3C[C@H]2CN1C(=O)c1ccccc1"
  LABEL: "No"
- MOLECULE: "COc1ccc(C(C)(O)c2nc(-c3ccc(C)c(C)c3)cs2)cc1 (stereo not drawn)"
  LABEL: "No"
- MOLECULE: "CCOC(=O)C1=CC[C@@H](c2ccccc2)N(S(=O)(=O)c2ccc(C)cc2)[C@H]1c1ccc(CC)cc1"
  LABEL: "No"
- MOLECULE: "COc1ccc(S(=O)(=O)N2CCC(C(=O)NCCC(=O)NCCc3cccc(F)c3)CC2)cc1"
  LABEL: "No"
- MOLECULE: "CCOC(=O)C1CCN(CCC(=O)Nc2cccc(C)c2)CC1"
  LABEL: "No"

Exam item: Identify the outcome logged in this assay for the molecule shown: "Cc1ccc(O)c(CNc2nc3ccccc3[nH]2)c1"
Marked response: No

Exam item: What was the test verdict on CCOC(=O)C1(C)CCCN(C(=O)c2ccc(N(C)C)cc2)C1 (stereo not drawn) ?
Marked response: No

* * *

- EXPERIMENT NOTES: qHTS for induction of synthetic lethality in tumor cells producing 2HG: qHTS for the HT-1080-IDH1KD cell line
- CONDITION PARAMETERS: HT-1080 IDH1 knockdown viability, ATP luminescence, 48 h; series mostly up to 46.1 µM
In all, about 360,000 compounds went through this assay and about 7,500 (2.1%) were called active. Not shown: some 8% with an inconclusive outcome. Calls follow the shape of the dose curve; as a rule, active = well fitted cell-killing curve with a large enough effect; inconclusive = small, poorly fitted or top-dose-only effect, or effect the other way, or another doubt; inactive = no such curve, though single readings can be large or run the other way. This is one part of a sample in which actives are shown more often than they occur.
Your answer must be one of the following: label 1 for active, label 0 for inactive

Below, 2 compounds whose answers are already recorded.
- COMPOUND: "CN1CCN(c2ccc3c(c2)OC[C@H](Cc2ccccc2)NS3(=O)=O)CC1"
  LABEL: "label 0"
- COMPOUND: "O=C(c1cccc([N+](=O)[O-])c1)N1CCN(Cc2ccccc2)CC1"
  LABEL: "label 0"

Exam item: What is the recorded call for this compound in the test? "CN1OC[C@@H]2CN[C@H](c3ccc(-c4ccccc4)cc3)C[C@@H]21"
Marked response: label 0

Exam item: So what was the verdict on CC(C)NC(=O)C1(C)CCCCCN1C(=O)c1ccc(-c2ccccc2)cc1 (centres undefined) in this test?
Marked response: label 0

Exam item: Any idea what this test logged for "Cc1cccc(NC(=O)c2nc[nH]c2C(=O)NCC(=O)OCc2ccccc2)c1" ?
Marked response: label 0

Exam item: Record lookup: outcome of this test for "CN(C)CCCn1c(=O)n(Cc2ccccc2)c(=O)c2c3c(sc21)CCCCC3" ?
Marked response: label 1
